# System: DU-145 prostate
# testSummary: NCI tumour cell line growth inhibition, 48 h
Recorded measurements of TGI, one per entry
attributeMeasured: TGI

INSERT INTO results (compound, valuemeasured) VALUES
  ('COc1ccc(N2NC(c3ccccc3)(c3ccccc3)C(C)C2=O)cc1 (centres undefined)', '> 100 µM'),
  ('C=C(C)CNC(=S)N(N)c1ccc2ccccc2c1', '> 100 µM'),
  ('COC(=O)C(C)NC(=O)c1ccccc1I(OS(=O)(=O)C(F)(F)F)c1ccccc1 (centres undefined)', '> 71.1 µM'),
  ('C[N+](C)(CCNC(=O)c1cccc2cc3ccccc3nc12)Cc1ccc([N+](=O)[O-])s1', '> 25 µM');
